Test system: KM12 colon
Test: NCI-60 one-dose screen, 48 h
Details: 10 µM unless noted
About 83,000 compounds went through this panel and 20% of them were active in at least one assay; those are over-represented in the sample as a whole. Calls of active or inactive are those of the source. The calls were made as follows: active = growth percent below 10; inactive = the rest.
Select the matching outcome among True = active, False = inactive

Here's what some known entries look like.
[[record]]
molecule = "COc1c2c(cc3c1C(CCc1ccccc1)N(C)CC3)OCO2 (stereo not drawn)"
experimental_target = "KM12 colon"
label_class = "True"

[[record]]
molecule = "COc1ccc(-c2nnc3c(/C=C/c4ccc(Br)cc4)nc4ccccc4n23)cc1"
experimental_target = "KM12 colon"
label_class = "False"


**Q:** What classification did CN1C(=O)/C(=C\C(=O)c2cc3ccccc3oc2=O)c2ccccc21 end up with in this test?
**A:** False

**Q:** What classification did Cc1ccc(C(=O)C[n+]2cccc3c4ccccc4ccc32)cc1 end up with in this test?
**A:** False

---

Test system: SK-MEL-2 melanoma
Test: NCI-60 one-dose screen, 48 h
Conditions: 10 µM unless noted
About 83,000 compounds went through this panel and 20% of them were active in at least one assay; those are over-represented in the sample as a whole. The source made the active and inactive calls. Rule for the calls: active = growth percent below 10; inactive = the rest.
Select the matching outcome among active, inactive

Here's what some known entries look like.
[[record]]
molecule = "COc1cc(/C=N/NC(=O)c2ccc(OCc3nc4ccc(C)cc4[nH]3)cc2)cc(OC)c1OC"
experimental_target = "SK-MEL-2 melanoma"
label_class = "inactive"

[[record]]
molecule = "Cc1nc2sccn2c1-c1nnc(SCc2ccccc2)o1"
experimental_target = "SK-MEL-2 melanoma"
label_class = "inactive"

[[record]]
molecule = "c1n[nH]cc1-c1nc2ccc3[nH]ncc3c2c2c1CC1(CCOCC1)CC2"
experimental_target = "SK-MEL-2 melanoma"
label_class = "inactive"

[[record]]
molecule = "CCCCNC(=S)Nc1ccc(OCc2nc3ccc(Cl)cc3[nH]2)cc1"
experimental_target = "SK-MEL-2 melanoma"
label_class = "active"

[[record]]
molecule = "Cc1ccc2nc(SCc3ccccc3F)n(-c3ccccc3)c(=O)c2c1"
experimental_target = "SK-MEL-2 melanoma"
label_class = "inactive"


**Q:** What classification did COc1ccc(Nc2ncnc3sc4c(c23)CCN(Cc2ccccc2)C4)cc1 end up with in this test?
**A:** inactive

**Q:** What classification did COc1ccccc1Nc1nnc(-c2c[nH]c3ccccc23)o1 end up with in this test?
**A:** active

**Q:** What classification did C[C@@H](Nc1c(C#N)cnc2ccc(-c3cnc4[nH]ncc4c3)cc12)c1ccccc1 end up with in this test?
**A:** active

**Q:** What classification did Cc1ccc(C2CC(c3ccc(NC(=S)Nc4ccccc4)cc3)=NN2c2ccc(S(N)(=O)=O)cc2)cc1 (centres undefined) end up with in this test?
**A:** inactive

---

Tested on: UACC-62 melanoma
Experiment: NCI-60 one-dose screen, 48 h (100 = growth as untreated, 0 = no growth, -100 = all killed)
Conditions: 10 µM unless noted
About 83,000 compounds went through this panel and 20% of them were active in at least one assay; those are over-represented in the sample as a whole.
Each item that follows carries a reported growth.
Numeric only. Scale: %

// worked examples, growth included
[[record]]
compound = "N#C/C(=C/c1ccc([N+](=O)[O-])cc1)c1nnc(NC(=O)c2ccc(-n3c(=O)[nH]c4ccccc4c3=O)cc2)s1"
observable = "growth"
data_value = 99.2

[[record]]
compound = "O=C(CSc1nc2sc3c(c2c(=O)n1-c1ccc(Cl)cc1)CCCC3)NNC(=O)c1ccc(Br)cc1"
observable = "growth"
data_value = 36.6

[[record]]
compound = "Cc1ccc(C(=O)Nc2cc(-c3ccccc3)cc(C(F)(F)F)c2)cc1C#Cc1cnc2cccnn12"
observable = "growth"
data_value = 46.1


Notebook: N#CC1=C(c2cccs2)Nc2c(c(-c3ccccc3)nn2-c2ccccc2)C12C(=O)Nc1ccc(Cl)cc12 (stereo unspecified) , growth read as 15.4

Notebook: CCCCNc1ccc2c3c(cccc13)C(=O)N(NCC(O)COc1ccc3c(C)cc(=O)oc3c1)C2=O (stereo unspecified) , growth read as 69.2

Notebook: Fc1ccc(F)c(CNc2nc(SCCN3CCOCC3)nc3c2cnn3CC(Cl)c2ccc(Br)cc2)c1 (stereo unspecified) , growth read as -1.48

Notebook: CC[C@]12C=CCN3CC[C@]4(C(=C(C(=O)OC)C1)Nc1cc(OC)c([C@@H]5[C@H]6O[C@H]6[C@@]6(CC)CC(C(=O)OC)=C7Nc8cc(OC)ccc8[C@@]78CCN5[C@@H]68)cc14)[C@@H]32 , growth read as 42.9

Notebook: CCCCNc1ccc2c3c(cccc13)C(=O)N(c1cccc(-c3nn(-c4ccccc4)cc3-c3nc4ccccc4s3)c1)C2=O , growth read as 88.3

Notebook: COc1ccc(-c2nc3ccc(-c4nnc(SCc5ccccc5)o4)cc3[nH]2)cc1 , growth read as -72.3

Notebook: CC(C)(C)OC(=O)N1CCC2(CC1)Oc1ccccc1[C@H]1CC(c3ccc(Br)cc3)=NN12 , growth read as 41.3

Notebook: O=C(NC(=S)N1CCN(c2ncnc3c2cnn3-c2ccccc2)CC1)c1ccc(Br)cc1 , growth read as 60.6

Notebook: O=C(c1ccc(Cl)cc1)C1[C@H](c2ccccc2Cl)[C@@H](c2ccccc2)NC12C(=O)Nc1ccc(Br)cc12 (stereo partly specified) , growth read as -86.2

Ref: PubChem BioAssay (NCI)
